The origin of these recorded values is the OligoGym collection.

# Tested target: UBE2J1; also: test concentration or dose not given here
# Procedure text: reporter assay of Huesken 2005
# Condition notes: siRNA
Oligonucleotides are written 5' to 3', each unit as a sugar letter and its base; * is a phosphorothioate linkage, no mark a phosphodiester; rarer units and linkages stand in square brackets, end groups in braces. Plain capitals give the bases only. d = 2'-deoxy (DNA); r = 2'-OH (RNA)
Property label: normalised inhibition (eCFP-eYFP dual reporter) (%)
Note: unit % is implicit; provide only the numeric part.

The cases that follow already have their normalised inhibition (eCFP-eYFP dual reporter) on record.
Substance	Tested target	Assay value
sense rGrCrUrGrUrArCrUrGrArUrUrGrUrCrArUrCrCdTdT / antisense rGrGrArUrGrArCrArArUrCrArGrUrArCrArGrCdTdG	UBE2J1	62.4
sense rGrCrGrCrCrGrGrGrCrCrCrArGrCrArGrCrArGdTdT / antisense rCrUrGrCrUrGrCrUrGrGrGrCrCrCrGrGrCrGrCdTdG	UBE2J1	35.3

Turning to the following substance.
Given the substance sense rArGrGrArCrArGrCrArUrUrArUrUrArGrCrCrAdTdT / antisense rUrGrGrCrUrArArUrArArUrGrCrUrGrUrCrCrUdTdA , what is its reported normalised inhibition (eCFP-eYFP dual reporter)? 74.8
